tested on: SK-MEL-5; experiment: NCI tumour cell line growth inhibition, 48 h
Calls of active or inactive are those of the source. Rule as the data show it: active = GI50 up to about 1.1 µM and inactive = higher.
Listed here are compounds together with their documented GI50.

The following compounds have reported results that may help.
> print(dat)
                                   compound               result
1  CCOC(=O)C1=c2[nH]c3cccc4cccc(c43)n2C=C(C(C)=O)C1CC(C)=O (centres undefined)  > 100 µM (inactive)
2  COc1ccc(C(=O)/C=C/c2ccc(OCCCCCCCCCCOc3ccc(/C=C/C(=O)c4ccc(OC)c(OC)c4)cc3)cc2)c(OC)c1  > 100 µM (inactive)
3  COC1OC(C)C(OC(=O)C(C)(C)C)C(C)(O)C1O (centres undefined)  > 100 µM (inactive)
4  CCCCc1ccc(Nc2nc(Cl)c3c(ncn3COCCOC(C)=O)n2)cc1   18.7 µM (inactive)
5  COc1ccccc1C(=O)NCC1CCCN2CCCCC12 (centres undefined)  > 100 µM (inactive)

Item under review: N=c1c2c(=S)n(-c3ccccc3)c(=S)n(-c3ccccc3)c2nc(SCCCN2CCCCC2)n1-c1ccccc1 . Reported GI50?
1.86 µM (inactive)

Which GI50 is listed for CN(/N=C/c1ccc(C(=O)O)cc1)C1=NCCCCN1 ?
> 100 µM (inactive)

Quick one: GI50 of CS(=O)(=O)OCCN1CCN(C(=O)c2cccc3c(Nc4ccc(S(=O)(=O)N=C(N)N)cc4)c4ccccc4nc23)CC1 ?
> 100 µM (inactive)

Which GI50 reading was recorded for the compound Cc1c(C(=O)C(=O)c2ccccc2)c(C)c(C(=O)C(=O)c2ccccc2)c(C)c1C(=O)C(=O)c1ccccc1 ?
> 100 µM (inactive)
